# system.name: FAAH (Rattus norvegicus, UniProt P97612)
# Construct: Preparation of Rat Brain Membranes Preparations (FAAH Enzyme Solution); from tissue; host or cells: rat cerebrum (brain membrane preparation)
# Sequence (P97612 whole entry): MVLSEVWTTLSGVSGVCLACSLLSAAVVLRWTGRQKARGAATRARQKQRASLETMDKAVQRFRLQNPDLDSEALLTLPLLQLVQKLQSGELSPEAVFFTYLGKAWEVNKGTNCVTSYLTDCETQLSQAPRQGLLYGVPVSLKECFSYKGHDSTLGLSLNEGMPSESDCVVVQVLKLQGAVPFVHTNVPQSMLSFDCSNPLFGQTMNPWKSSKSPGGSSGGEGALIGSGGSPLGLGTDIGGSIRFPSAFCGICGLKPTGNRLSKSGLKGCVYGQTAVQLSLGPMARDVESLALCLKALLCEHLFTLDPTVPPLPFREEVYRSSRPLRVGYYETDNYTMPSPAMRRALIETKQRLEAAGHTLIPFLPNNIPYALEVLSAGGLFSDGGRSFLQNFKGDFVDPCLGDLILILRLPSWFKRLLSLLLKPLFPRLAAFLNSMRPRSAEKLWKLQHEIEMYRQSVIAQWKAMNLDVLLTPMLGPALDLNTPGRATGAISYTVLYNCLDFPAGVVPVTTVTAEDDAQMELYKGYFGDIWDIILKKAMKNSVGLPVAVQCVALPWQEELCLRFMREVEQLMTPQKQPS
# test: Determination of FAAH inhibitory activity in rat (rat brain membrane preparations, [3H]-anandamide hydrolysis)
# Format: biochemical
# measurement.setup: rat brain membrane preparations; test substance 0.1 nM to 1 μM; read-out: FAAH Inhibition IC50
# Description: Determination of FAAH Inhibitory Activity in Rat The preparation of rat brain membranes preparations and the determination of FAAH inhibitory activity were carried out according to the Jonsson et al. method [Br. J. Pharmacol., 133, 1263 (2001)]. (1) Preparation of Rat Brain Membranes Preparations (FAAH Enzyme Solution) The cerebrum was extracted from rats and was freeze-stored at −80° C. […]
pIC50: −log10 of the molar value.
measured.attribute: pIC50

>>> data_value("COCc1ncc2c(n1)n(C)c(=O)n2C(=O)N1CC(c2ccc(OC)cc2)C1 [compound 450]")
7.70

(I) COc1cccc(-c2ncc3c(n2)n(C)c(=O)n3C(=O)N(C)CC(C)C)c1 [Example 108]
(II) Cc1cc(C)cc(CCc2ncc3c(n2)n(C(=O)N(C)C)c(=O)n3C)c1 [compound 514]
So which one has the bigger pIC50 here, I or II ? // respond with label for picked entry
II
(II: 8.00, I: 7.66)

###

# system.name: FAAH (Rattus norvegicus)
# Construct: Preparation of Rat Brain Membranes Preparations (FAAH Enzyme Solution); from tissue; host or cells: rat cerebrum (brain membrane preparation)
# test: Determination of FAAH inhibitory activity in rat (rat brain membrane preparations, [3H]-anandamide hydrolysis)
# Assay type: biochemical
# measurement.setup: rat brain membrane preparations; read-out: FAAH Inhibition IC50
measured.attribute: IC50 (nM)

Here's what some known entries look like.
>>> data_value("CN(C)C(=O)n1c(=O)n(C)c2cnc(CCCCc3ccccc3)nc21 [Example 618]")
10
>>> data_value("COCc1ncc2c(n1)n(C1CC1)c(=O)n2C(=O)N1CC(c2ccccc2)C1 [compound 663]")
24
>>> data_value("CN(C)C(=O)n1c(=O)n(C)c2cnc(Cc3ccc(Cl)cc3)nc21 [compound 653]")
11
>>> data_value("CCCn1c(=O)n(C(=O)N(C)C)c2nc(CCc3ccccc3F)ncc21 [Example 646]")
13
>>> data_value("Cn1c(=O)n(C(=O)N2CC(c3ccc(F)cc3)C2)c2cnc(C3CC3)nc21 [compound 621]")
10
>>> data_value("CCCn1c(=O)n(C(=O)N2CC(c3ccc(F)cc3)C2)c2cnc(COC)nc21 [Example 659]")
6

(a) CCCc1ncc2c(n1)n(C)c(=O)n2C(=O)N1CC(Oc2ccccc2CC)C1 [Example 629]
(b) CCn1c(=O)n(C(=O)N2CCC2)c2nc(CCc3ccc(F)cc3)ncc21 [Example 651]
Sorting ascending by IC50, which comes first: a or b ? // respond with label for picked entry
b

###

# system.name: FAAH (Rattus norvegicus)
# Construct: Preparation of Rat Brain Membranes Preparations (FAAH Enzyme Solution); from tissue; host or cells: rat cerebrum (brain membrane preparation)
# test: Determination of FAAH inhibitory activity in rat (rat brain membrane preparations, [3H]-anandamide hydrolysis)
# Assay type: biochemical
# measurement.setup: rat brain membrane preparations; test substance 0.1 nM to 1 μM; read-out: FAAH Inhibition IC50
measured.attribute: IC50 (nM)

(P) COc1ccc(/C=C/c2ncc3c(n2)n(C)c(=O)n3C(=O)N2CCCC2)cc1
(Q) Cn1c(=O)n(C(=O)N2CCCC2)c2cnc(-c3cccc(OC(F)(F)F)c3)nc21
(R) CCCN(C)C(=O)n1c(=O)n(C)c2nc(-c3cccc(OC)c3)ncc21
(S) CCOc1cccc(-c2ncc3c(n2)n(C(=O)N2CCCC2)c(=O)n3C)c1
Sort key: IC50. Order: high to low. Scope: items listed above. Respond with an ordered listing of the labels, as requested.
Q, S, P, R
(Q: 56 nM, S: 20 nM, P: 10 nM, R: 7 nM)

(a) CCCc1ccc(CCc2ncc3c(n2)n(C(=O)N(C)C)c(=O)n3C)cc1
(b) Cn1c(=O)n(C(=O)N2CCCC2)c2nc(-c3ccccc3F)ncc21
So which one has the bigger IC50 here, a or b ? // respond with label for picked entry
b

(P) CCOCc1ncc2c(n1)n(C)c(=O)n2C(=O)N1CC(c2ccc(OCC)cc2)C1
(Q) COCc1ncc2c(n1)n(C)c(=O)n2C(=O)N1CC[C@@H](Oc2ccccc2C)C1
Sorting ascending by IC50, which comes first: P or Q ? // respond with label for picked entry
P

###

# system.name: FAAH (Rattus norvegicus, UniProt P97612)
# Construct: Preparation of Rat Brain Membranes Preparations (FAAH Enzyme Solution); from tissue; host or cells: rat cerebrum (brain membrane preparation)
# test: Determination of FAAH inhibitory activity in rat (rat brain membrane preparations, [3H]-anandamide hydrolysis)
# Format: biochemical
# measurement.setup: rat brain membrane preparations; 100 nM test substance; read-out: FAAH Inhibition, Inhibition Rate at 100 nM
measured.attribute: inhibition at 0.1 µM (%)

Here's what some known entries look like.
>>> data_value("Cn1c(=O)n(C(=O)N2CCCC2)c2cnc(Cc3ccc(F)cc3)nc21")
99
>>> data_value("CN(C)C(=O)n1c(=O)n(C)c2cnc(CCc3ccc(F)c(F)c3)nc21")
86
>>> data_value("Cc1ccc(-c2ncc3c(n2)n(C)c(=O)n3C(=O)N2CCCC2)cc1")
102
>>> data_value("CCN(C)C(=O)n1c(=O)n(C)c2nc(Cc3cccc(OC)c3)ncc21")
96
>>> data_value("COCc1ncc2c(n1)n(C)c(=O)n2C(=O)N1CC(c2ccc(OCc3ccccc3)cc2)C1")
99
>>> data_value("COCc1ncc2c(n1)n(C)c(=O)n2C(=O)N1CC(Oc2ccccc2C)C1")
46
>>> data_value("COc1cccc(-c2ncc3c(n2)n(C)c(=O)n3C(=O)N(C)CCc2nc(-c3ccccc3)no2)c1")
101
>>> data_value("COc1cc(Cc2ncc3c(n2)n(C)c(=O)n3C(=O)N2CCCC2)cc(OC)c1")
39
>>> data_value("CCCCOc1cccc(-c2ncc3c(n2)n(C(=O)N2CCC2)c(=O)n3C)c1")
90
>>> data_value("Cn1c(=O)n(C(=O)N2CCCC2)c2cnc(/C=C/c3ccc(C(F)(F)F)cc3)nc21")
59

(a) Cn1c(=O)n(C(=O)N2CCCC2)c2cnc(CCCc3ccccc3)nc21
(b) CN(C)C(=O)n1c(=O)n(C)c2cnc(CCCOc3ccc(F)cc3)nc21
So which one has the bigger inhibition at 0.1 µM here, a or b ? // respond with label for picked entry
b

###

# system.name: FAAH (Rattus norvegicus)
# Construct: Preparation of Rat Brain Membranes Preparations (FAAH Enzyme Solution); from tissue; host or cells: rat cerebrum (brain membrane preparation)
# test: Determination of FAAH inhibitory activity in rat (rat brain membrane preparations, [3H]-anandamide hydrolysis)
# Assay type: biochemical
# measurement.setup: at 100 nM; rat brain membrane preparations; read-out: FAAH Inhibition Inhibition Rate at 100 nM
measured.attribute: inhibition at 0.1 µM (%)

>>> data_value("CCCn1c(=O)n(C(=O)N(C)C)c2nc(CCc3ccccc3F)ncc21 [Example 646]")
117

(I) CCn1c(=O)n(C(=O)N2CC(c3cccc(F)c3)C2)c2cnc(COC)nc21 [Example 657]
(II) Cn1c(=O)n(C(=O)N2CC(c3ccccc3)C2)c2nc(C3CC3)ncc21 [Example 631]
So which one has the bigger inhibition at 0.1 µM here, I or II ? // respond with label for picked entry
I
(I: 119%, II: 77%)

(P) CCn1c(=O)n(C(=O)N2CCC2)c2nc(CCc3cccc(F)c3)ncc21 [Example 650]
(Q) CN(C)C(=O)n1c(=O)n(C)c2cnc(Cc3ccccc3Cl)nc21 [compound 652]
Sorting ascending by inhibition at 0.1 µM, which comes first: P or Q ? // respond with label for picked entry
Q

###

# system.name: FAAH (Rattus norvegicus)
# Construct: Preparation of Rat Brain Membranes Preparations (FAAH Enzyme Solution); from tissue; host or cells: rat cerebrum (brain membrane preparation)
# test: Determination of FAAH inhibitory activity in rat (rat brain membrane preparations, [3H]-anandamide hydrolysis)
# Type: biochemical
# measurement.setup: rat brain membrane preparations; 100 nM test substance; read-out: FAAH Inhibition, Inhibition Rate at 100 nM
measured.attribute: inhibition at 0.1 µM (%)

Here's what some known entries look like.
>>> data_value("CN(C)C(=O)n1c(=O)n(C)c2cnc(COc3cccc(OC(F)F)c3)nc21")
60
>>> data_value("Cn1c(=O)n(C(=O)N2CCC2)c2nc(COc3ccc(C(F)(F)F)cc3)ncc21")
95

(A) Cn1c(=O)n(C(=O)N2CCC2)c2nc(-c3cccc(C(F)(F)F)c3)ncc21
(B) CN(C)C(=O)n1c(=O)n(C)c2cnc(-c3ccc(C(F)F)cc3)nc21
(C) COCCCc1ncc2c(n1)n(C)c(=O)n2C(=O)N1CC(Oc2ccccc2)C1
Parameters: sort_field (inhibition at 0.1 µM), sort_dir (desc). Respond with an ordered listing of the labels, as requested.
A, B, C
(A: 107%, B: 62%, C: 8%)

(I) COc1cccc(-c2ncc3c(n2)n(C)c(=O)n3C(=O)N2CCN(c3cccc(F)c3)CC2)c1
(II) COCCCc1ncc2c(n1)n(C)c(=O)n2C(=O)N1CC(c2ccccc2)C1
So which one has the bigger inhibition at 0.1 µM here, I or II ? // respond with label for picked entry
I
(I: 98%, II: 65%)
